Values from paper PMC12586182

# measured-target: TYK2 (Homo sapiens, UniProt P29597)
# Construct: purchased Carna Biosciences
# Sequence (P29597 whole entry): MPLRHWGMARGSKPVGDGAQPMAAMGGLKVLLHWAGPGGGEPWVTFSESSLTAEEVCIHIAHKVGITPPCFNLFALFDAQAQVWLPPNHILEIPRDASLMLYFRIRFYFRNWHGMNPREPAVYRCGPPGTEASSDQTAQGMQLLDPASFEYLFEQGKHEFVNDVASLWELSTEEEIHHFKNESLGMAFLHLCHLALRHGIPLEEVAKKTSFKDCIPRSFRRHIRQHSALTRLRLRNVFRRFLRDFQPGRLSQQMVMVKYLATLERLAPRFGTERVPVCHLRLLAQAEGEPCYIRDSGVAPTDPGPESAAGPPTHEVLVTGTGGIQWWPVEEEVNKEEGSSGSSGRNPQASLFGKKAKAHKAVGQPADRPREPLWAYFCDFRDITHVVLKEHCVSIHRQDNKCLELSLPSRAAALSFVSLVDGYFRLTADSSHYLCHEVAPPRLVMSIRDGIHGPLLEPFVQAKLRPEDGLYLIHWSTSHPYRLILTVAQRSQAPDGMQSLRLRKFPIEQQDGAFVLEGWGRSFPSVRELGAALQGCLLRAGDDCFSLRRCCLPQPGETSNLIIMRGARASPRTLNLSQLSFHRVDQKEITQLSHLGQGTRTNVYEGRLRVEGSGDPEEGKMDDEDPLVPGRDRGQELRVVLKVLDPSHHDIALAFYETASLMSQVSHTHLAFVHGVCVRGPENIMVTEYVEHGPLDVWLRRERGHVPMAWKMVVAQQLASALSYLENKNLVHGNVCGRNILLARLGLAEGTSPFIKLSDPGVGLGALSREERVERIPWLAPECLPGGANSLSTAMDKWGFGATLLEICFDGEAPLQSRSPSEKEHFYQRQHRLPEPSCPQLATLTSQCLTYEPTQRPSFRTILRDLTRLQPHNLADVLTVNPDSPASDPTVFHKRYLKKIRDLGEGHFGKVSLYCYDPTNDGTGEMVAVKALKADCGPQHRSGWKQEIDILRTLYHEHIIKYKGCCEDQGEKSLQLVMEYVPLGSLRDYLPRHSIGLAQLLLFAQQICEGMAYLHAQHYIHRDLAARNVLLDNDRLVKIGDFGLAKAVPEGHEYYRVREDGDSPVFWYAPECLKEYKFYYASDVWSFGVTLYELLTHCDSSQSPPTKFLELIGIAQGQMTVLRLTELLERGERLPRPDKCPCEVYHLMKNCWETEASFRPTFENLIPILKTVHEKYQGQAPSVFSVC
# experimental-protocol: Kinase panel profiling at 1 µmol/L (mobility shift assay, Carna)
# Assay type: biochemical
# condition-details: 1 µmol/L of BTK inhibitor
The entries below come with measured Percentage inhibition of kinase enzyme activity values attached.
Kindly answer with a numeric value in %, unit omitted.

Prompt: # get_value(readout='Percentage inhibition of kinase enzyme activity', item= `C=CC(=O)N1CCC[C@@H](n2nc(-c3ccc(Oc4ccccc4)cc3)c3c(N)ncnc32)C1` )
Response: 6.93

Prompt: Can you handle `O=C(c1ccc(Oc2ccccc2)cc1Cl)c1c[nH]c2ncnc(N[C@@H]3CC[C@@H](CO)OC3)c12` next?
Response: 10.79

Prompt: Can you handle `CC#CC(=O)N1CCC[C@H]1c1nc(-c2ccc(C(=O)Nc3ccccn3)cc2)c2c(N)nccn12` next?
Response: 12.80

Prompt: Can you handle `COc1ccc(F)cc1C(=O)NCc1ccc(-c2nn([C@@H](C)C(F)(F)F)c(N)c2C(N)=O)cc1` next?
Response: -2.78
